- Type: in vivo, human
- CONDITION: male, human, plasma, oral, 600 mg, half-life, plasma GBPA elimination
PROPERTY LABEL: half-life

Tell me the measured half-life of N=C(N)Nc1ccc(C(=O)Oc2ccc(CC(=O)O)cc2)cc1 [GBPA] , please.
< 2 h

---

- Assay type: in vivo, human
- CONDITION: male, human, plasma, oral, 600 mg, t1/2, Cohort 1, Day 1, Fasted; mean (SD), n = 6
PROPERTY LABEL: half-life

Requested read-out: half-life. Entry: N=C(N)Nc1ccc(C(=O)Oc2ccc(CC(=O)O)cc2)cc1 [GBPA]
1.58 h

---

- Format: in vivo, human
- CONDITION: male, human, plasma, oral, 600 mg, Tmax, Cohort 2, Day 1, 30 min before a meal; median (range)
PROPERTY LABEL: Tmax (h)
Respond numerically; units are h and should not be typed.

Fill blank: measured Tmax of the molecule N=C(N)Nc1ccc(C(=O)Oc2ccc(CC(=O)O)cc2)cc1 [GBPA] is ____.
1

---

- Assay type: in vivo, human
- CONDITION: male, human, plasma, oral, 600 mg, Tmax, Cohort 1, Day 1, Fasted; median (range)
PROPERTY LABEL: Tmax (h)
The answer is to be given in h; state only the numeric part.

Name the recorded Tmax for N=C(N)Nc1ccc(C(=O)Oc2ccc(CC(=O)O)cc2)cc1 .
1

---

- Assay type: in vivo, human
- CONDITION: male, human, plasma, oral, 600 mg, median Tmax, fed conditions
PROPERTY LABEL: Tmax (h)
Answer format: numeric, h implied, no suffix.

Entry N=C(N)Nc1ccc(C(=O)Oc2ccc(CC(=O)O)cc2)cc1 : reported Tmax = ?
2

---

- Assay type: in vivo, human
- CONDITION: male, human, plasma, po, 600 mg, Cmax, Cohort 1, Day 3, Fed; 600 mg camostat mesylate oral; mean (SD)
PROPERTY LABEL: Cmax (ng/mL)
Answer with a number only, understood to be in ng/mL.

Name the recorded Cmax for N=C(N)Nc1ccc(C(=O)Oc2ccc(CC(=O)O)cc2)cc1 .
95.8

---

- Assay type: in vivo, human
- CONDITION: male, human, plasma, oral, 600 mg, t1/2, Cohort 1, Day 9, Fed; mean (SD), n = 3
PROPERTY LABEL: half-life (h)
State the answer as a number, implicitly in h.

Return reported half-life; argument: N=C(N)Nc1ccc(C(=O)Oc2ccc(CC(=O)O)cc2)cc1
1.16

---

- Type: in vivo, human
- CONDITION: male, human, plasma, po, 600 mg, Cmax, Cohort 2, Day 9, 1 h before a meal; 600 mg camostat mesylate oral; mean (SD)
PROPERTY LABEL: Cmax (ng/mL)
# unit: ng/mL | format: bare number

Query (molecule): N=C(N)Nc1ccc(C(=O)Oc2ccc(CC(=O)O)cc2)cc1 [GBPA] ; field requested: Cmax
367

---

- Type: in vivo, human
- CONDITION: male, human, plasma, oral, 600 mg, median Tmax, fasted conditions, 30 min before a meal, and 1 h before a meal
PROPERTY LABEL: Tmax (h)
Form entry: value (h) — number only.

Fill in the blank: the reported Tmax of N=C(N)Nc1ccc(C(=O)Oc2ccc(CC(=O)O)cc2)cc1 [GBPA] is ____.
1
